From: patent US5814627A

Tested on: leukotriene B4 synthesis in white blood cells
Method Notes: Test 3: LTB4 formation by white blood cells
Assay type: cell-based
Protocol Conditions: Homo sapiens; 10 μM; read-out: Test 3 residual activity (LTB4 formation), percent of control
Endpoint Label: activity at 10 µM
Numeric answer plus unit only.

Solved cases (4 shown):
CC(C)(OCc1cc(-c2cc(C(C)(C)C)c(O)c(C(C)(C)C)c2)no1)C(=O)O
93%
CC(C)(C)c1cc(C2=NOC(c3ccsc3)C2)cc(C(C)(C)C)c1O (stereo not shown)
15%
CC(C)(C)c1cc(C2=NOC(c3ccncc3)C2)cc(C(C)(C)C)c1O (stereo not shown)
20%
CC(C)(C)c1cc(C2CC(c3nccs3)=NO2)cc(C(C)(C)C)c1O (stereo not shown)
3%

// input: 6 molecules below; output: activity at 10 µM for each
1. CC(C)(C)c1cc(C2CC(CCC(=O)O)=NO2)cc(C(C)(C)C)c1O (stereo not shown)
2. CC(C)(C)c1cc(C2CC(c3ccncc3)=NO2)cc(C(C)(C)C)c1O (stereo not shown)
3. CCOC(=O)CNC(=O)OCCCc1cc(-c2cc(C(C)(C)C)c(O)c(C(C)(C)C)c2)no1
4. CC(C)(C)c1cc(C2=NOC(CO)C2)cc(C(C)(C)C)c1O (stereo not shown)
5. CC(C)(C)c1cc(-c2cc(CCO)on2)cc(C(C)(C)C)c1O
6. CC(C)(C)c1cc(-c2cc(CNS(=O)(=O)C(F)(F)F)on2)cc(C(C)(C)C)c1O

["91%", "88%", "13%", "92%", "29%", "0%"]

// input: 3 molecules below; output: activity at 10 µM for each
1. CC(O)c1cc(-c2cc(C(C)(C)C)c(O)c(C(C)(C)C)c2)no1 (stereo not shown)
2. CC(C)(C)c1cc(-c2cc(CCOC(=O)NCC(=O)O)on2)cc(C(C)(C)C)c1O
3. CC(C)(C)c1cc(C2=NOC(c3ccccn3)C2)cc(C(C)(C)C)c1O (stereo not shown)

1: 0%; 2: 93%; 3: 0%

----------
Test system: polymorphonuclear leucocytes (PMNL)
Method Notes: Test 1: Release of proteolytic activity from human PMNL
Format: cell-based
Protocol Conditions: Homo sapiens, PMNL, 10 μM; read-out: Test 1 residual activity (release of proteolytic activity), percent of control
Structures can show the parent of a compound that is named as a salt.
For each of the molecules below, state its activity at 10 µM.
Answers are plain numbers, in %.

Solved cases (4 shown):
C[C@@H](O)[C@@H]1CC(c2cc(C(C)(C)C)c(O)c(C(C)(C)C)c2)=NO1 (relative stereo)
78
CC(O)c1cc(-c2cc(C(C)(C)C)c(O)c(C(C)(C)C)c2)no1 (stereo not shown)
59
CC(C)(C)c1cc(C2CC(CCC(=O)O)=NO2)cc(C(C)(C)C)c1O (stereo not shown)
88
CC(C)(C)c1cc(C2CC(CCC(=O)Nc3nnn[nH]3)=NO2)cc(C(C)(C)C)c1O (stereo not shown)
96

// input: 6 molecules below; output: activity at 10 µM for each
1. CC(=O)c1cc(-c2cc(C(C)(C)C)c(O)c(C(C)(C)C)c2)no1
2. CC(C)(C)c1cc(-c2noc(CO)c2CO)cc(C(C)(C)C)c1O
3. C[C@@H](OC(=O)CN)[C@@H]1CC(c2cc(C(C)(C)C)c(O)c(C(C)(C)C)c2)=NO1 (relative stereo) [Example 77, hydrochloride]
4. CC(OC(=O)[C@@H](N)Cc1ccccc1)C1CC(c2cc(C(C)(C)C)c(O)c(C(C)(C)C)c2)=NO1 (single isomer, unassigned) [Example 74, hydrochloride]
5. CC(=O)C1CC(c2cc(C(C)(C)C)c(O)c(C(C)(C)C)c2)=NO1 (stereo not shown)
6. CC(C)(C)c1cc(-c2cc(/C=C/C(=O)O)on2)cc(C(C)(C)C)c1O

1: 61; 2: 72; 3: 74; 4: 64; 5: 77; 6: 38

// input: 2 molecules below; output: activity at 10 µM for each
1. CC(OC(=O)CN)c1cc(-c2cc(C(C)(C)C)c(O)c(C(C)(C)C)c2)no1 (stereo not shown) [Example 76, hydrochloride]
2. CC(OC(=O)[C@@H](N)Cc1ccccc1)c1cc(-c2cc(C(C)(C)C)c(O)c(C(C)(C)C)c2)no1 (single isomer, unassigned) [Example 71, hydrochloride]

1. 68
2. 42

Note activity at 10 µM for the molecule shown: CC(C)(C)c1cc(-c2cc(CNS(=O)(=O)C(F)(F)F)on2)cc(C(C)(C)C)c1O
23

----------
For each of the compounds below, state its activity at 100 µM.
System: polymorphonuclear leucocytes (PMNL)
Method Notes: Test 1: Release of proteolytic activity from human PMNL
Format: cell-based
Protocol Conditions: Homo sapiens, PMNL, 100 μM; read-out: Test 1 residual activity (release of proteolytic activity), percent of control
Counter-ions that a name gives are not always drawn.
Numeric answer plus unit only.

Solved cases (3 shown):
C[C@@H](O)[C@@H]1CC(c2cc(C(C)(C)C)c(O)c(C(C)(C)C)c2)=NO1 (relative stereo)
20%
CC(C)(C)c1cc(-c2noc(CO)c2CO)cc(C(C)(C)C)c1O
34%
CC(C)(C)c1cc(C2CC(CCC(=O)O)=NO2)cc(C(C)(C)C)c1O (stereo not shown)
66%

// input: 5 compounds below; output: activity at 100 µM for each
1. CC(C)(C)c1cc(C2=NOC(c3ccccn3)C2)cc(C(C)(C)C)c1O (stereo not shown)
2. CC(C)(C)c1cc(-c2cc(CNS(=O)(=O)C(F)(F)F)on2)cc(C(C)(C)C)c1O
3. CC(=O)C1CC(c2cc(C(C)(C)C)c(O)c(C(C)(C)C)c2)=NO1 (stereo not shown)
4. CC(OC(=O)CN)c1cc(-c2cc(C(C)(C)C)c(O)c(C(C)(C)C)c2)no1 (stereo not shown) [Example 76, hydrochloride]
5. CC(C)(C)c1cc(C2CC(c3nccs3)=NO2)cc(C(C)(C)C)c1O (stereo not shown)

["64%", "19%", "20%", "9%", "80%"]

// input: 3 compounds below; output: activity at 100 µM for each
1. C[C@@H](OC(=O)CN)[C@@H]1CC(c2cc(C(C)(C)C)c(O)c(C(C)(C)C)c2)=NO1 (relative stereo) [Example 77, hydrochloride]
2. CC(C)(C)c1cc(C2CC(CCC(=O)Nc3nnn[nH]3)=NO2)cc(C(C)(C)C)c1O (stereo not shown)
3. CCOC(=O)CNC(=O)OCCCc1cc(-c2cc(C(C)(C)C)c(O)c(C(C)(C)C)c2)no1

1. 30%
2. 72%
3. 78%

// input: 2 compounds below; output: activity at 100 µM for each
1. CC(=O)c1cc(-c2cc(C(C)(C)C)c(O)c(C(C)(C)C)c2)no1
2. CC(C)(C)c1cc(-c2cc(/C=C/C(=O)O)on2)cc(C(C)(C)C)c1O

35%
17%

----------
Tested on: leukotriene B4 synthesis in white blood cells
Method Notes: Test 3: LTB4 formation by white blood cells
Type: cell-based
Protocol Conditions: Homo sapiens; 1 μM; read-out: Test 3 residual activity (LTB4 formation), percent of control
For each of the compounds below, state its activity at 1 µM.
Give bare numbers, in %.

Solved cases (5 shown):
CC(C)(C)c1cc(-c2cc(CNS(=O)(=O)C(F)(F)F)on2)cc(C(C)(C)C)c1O [Example 49]
90
CC(C)(C)c1cc(C2=NOC(c3ccncc3)C2)cc(C(C)(C)C)c1O (stereo not drawn) [Example 10]
89
CC(C)(C)c1cc(C2=NOC(c3ccccn3)C2)cc(C(C)(C)C)c1O (stereo not drawn) [Example 9]
59
CC(O)c1cc(-c2cc(C(C)(C)C)c(O)c(C(C)(C)C)c2)no1 (stereo not drawn) [Example 28]
14
CC(C)(C)c1cc(C2=NOC(c3ccsc3)C2)cc(C(C)(C)C)c1O (stereo not drawn) [Example 8]
93

We next turn to a different compound, shown below.
Note activity at 1 µM for the compound shown: CC(C)(C)c1cc(-c2cc(CCO)on2)cc(C(C)(C)C)c1O [Example 25]
85

----------
Tested on: adjuvant/arthritis model
Method Notes: Test 6: antiarthritic effect in the adjuvant/arthritis model
Type: in vivo, rat (Wistar-Lewis)
Protocol Conditions: Rattus norvegicus, po, 408 h, 50 mg/kg orally, daily for 17 days; rat; read-out: Test 6 Paw volume (% inhibition)
Where a name gives a salt, the structure may show the parent alone.
Endpoint Label: inhibition in vivo at 50 mg/kg

CC(C)(C)c1cc(-c2cc(CO)on2)cc(C(C)(C)C)c1O
43%

// input: 8 compounds below; output: inhibition in vivo at 50 mg/kg for each
1. CC(=O)O[C@@H](C)[C@@H]1CC(c2cc(C(C)(C)C)c(O)c(C(C)(C)C)c2)=NO1 (relative stereo)
2. CC(OC(=O)CN)c1cc(-c2cc(C(C)(C)C)c(O)c(C(C)(C)C)c2)no1 (stereo not shown) [Example 76, hydrochloride]
3. CC(C)(C)c1cc(-c2cc(CCCCO)on2)cc(C(C)(C)C)c1O
4. CC(C)(C)c1cc(C2=NO[C@H]([C@@H](O)CO)C2)cc(C(C)(C)C)c1O (relative stereo)
5. CC(C)(C)c1cc(C2=NOC(CO)C2)cc(C(C)(C)C)c1O (stereo not shown)
6. CC(O)c1cc(-c2cc(C(C)(C)C)c(O)c(C(C)(C)C)c2)no1 (stereo not shown)
7. CC(O)CC1CC(c2cc(C(C)(C)C)c(O)c(C(C)(C)C)c2)=NO1 (stereo not shown)
8. CC(C)(C)c1cc(C2=NOC(C(C)(C)O)C2)cc(C(C)(C)C)c1O (stereo not shown)

["74%", "70%", "71%", "36%", "70%", "74%", "60%", "83%"]
